- targetEntity: Kv7.2-W236L (Homo sapiens, UniProt O43526, W236L)
- Sequence (O43526 whole entry W236L): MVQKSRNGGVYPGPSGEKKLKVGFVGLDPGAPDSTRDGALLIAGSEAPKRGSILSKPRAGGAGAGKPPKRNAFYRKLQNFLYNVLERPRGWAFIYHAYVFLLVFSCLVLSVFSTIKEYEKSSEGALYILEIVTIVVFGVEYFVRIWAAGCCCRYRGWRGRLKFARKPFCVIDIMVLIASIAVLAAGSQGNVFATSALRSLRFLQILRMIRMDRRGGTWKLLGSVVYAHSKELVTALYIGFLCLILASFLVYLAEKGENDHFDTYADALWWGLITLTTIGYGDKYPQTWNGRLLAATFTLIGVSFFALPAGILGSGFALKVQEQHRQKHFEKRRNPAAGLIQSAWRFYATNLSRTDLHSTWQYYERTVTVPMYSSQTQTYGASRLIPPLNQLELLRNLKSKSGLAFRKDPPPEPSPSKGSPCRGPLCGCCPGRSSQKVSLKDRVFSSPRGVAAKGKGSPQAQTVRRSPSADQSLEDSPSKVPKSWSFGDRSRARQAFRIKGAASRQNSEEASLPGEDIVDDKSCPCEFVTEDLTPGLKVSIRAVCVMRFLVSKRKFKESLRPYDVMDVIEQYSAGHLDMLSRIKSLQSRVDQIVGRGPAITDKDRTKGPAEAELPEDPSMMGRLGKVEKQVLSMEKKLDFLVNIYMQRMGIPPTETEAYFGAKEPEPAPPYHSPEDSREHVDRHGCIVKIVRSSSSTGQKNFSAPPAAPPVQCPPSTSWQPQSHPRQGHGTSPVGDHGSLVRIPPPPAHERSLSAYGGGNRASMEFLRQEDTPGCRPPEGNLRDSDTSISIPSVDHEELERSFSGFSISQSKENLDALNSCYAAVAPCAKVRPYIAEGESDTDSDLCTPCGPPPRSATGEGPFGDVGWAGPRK
- assayProcedure: […] flux in transfected CHO cells; two-electrode voltage clamp in Xenopus oocytes (inhibition)
propertyLabel: pIC50
Scale note: pIC50 = -log10(concentration in M).

For C[C@H](NC(=O)/C=C/c1ccccc1F)c1ccc2c(c1)N(CC1CC1)CCO2 [(S)-2] , what is its reported pIC50? 5.09

====

- targetEntity: Kv7.4 (Homo sapiens, UniProt P56696)
- Sequence (P56696 1-695): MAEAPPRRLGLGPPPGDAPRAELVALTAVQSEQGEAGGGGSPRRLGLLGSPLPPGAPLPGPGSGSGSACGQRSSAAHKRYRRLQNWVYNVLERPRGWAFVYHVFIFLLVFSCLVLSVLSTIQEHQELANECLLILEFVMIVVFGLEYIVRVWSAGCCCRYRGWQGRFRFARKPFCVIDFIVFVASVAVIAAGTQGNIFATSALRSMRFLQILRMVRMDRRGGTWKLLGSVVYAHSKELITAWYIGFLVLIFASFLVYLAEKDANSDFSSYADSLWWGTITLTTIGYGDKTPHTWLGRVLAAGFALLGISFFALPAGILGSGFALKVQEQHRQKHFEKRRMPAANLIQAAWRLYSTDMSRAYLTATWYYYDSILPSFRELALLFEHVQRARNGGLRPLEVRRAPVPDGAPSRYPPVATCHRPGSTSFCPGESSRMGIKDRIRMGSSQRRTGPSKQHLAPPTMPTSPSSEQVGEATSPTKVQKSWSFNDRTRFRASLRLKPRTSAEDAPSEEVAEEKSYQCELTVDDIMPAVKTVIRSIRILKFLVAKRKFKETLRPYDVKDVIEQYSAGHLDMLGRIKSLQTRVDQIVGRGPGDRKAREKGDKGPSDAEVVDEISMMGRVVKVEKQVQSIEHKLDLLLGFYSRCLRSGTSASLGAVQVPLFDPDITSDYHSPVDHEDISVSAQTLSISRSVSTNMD
- assayProcedure: […] flux in transfected CHO cells; two-electrode voltage clamp in Xenopus oocytes; W242L loss of sensitivity
propertyLabel: pEC50
Scale note: pEC50 = -log10(concentration in M).

Missing value: pEC50, Kv7.4 (Homo sapiens, UniProt P56696), entry C[C@H](NC(=O)/C=C/c1ccccc1F)c1ccc2c(c1)N(CC1CC1)CCO2 [(S)-2] . Fill in? 6.66

The values you see were collected from paper PMC2788219.
